Kinase Inhib. 10 uM (%) values, listed per item
# Target: ROS (Homo sapiens)
# Test summary: In vitro ROS enzymatic reaction assay (HTRF, Cisbio)
# Assay type: biochemical
# Set-up: ROS or EGFR enzyme, 0.008 ng/ul
# Condition notes: ROS kinase, compound at 10 uM
Metric: Kinase Inhib. 10 uM (%)

{"Compound": "Cc1cc(C)n(-c2cccc(C(=O)NCC3Cc4cc(Cl)cc(-c5cnccn5)c4O3)c2)n1 (stereo not drawn)", "Result": 29.68}
{"Compound": "Cc1ccc(-n2cc(-c3cccs3)nc2SCc2n[nH]c(=S)n2Cc2ccccc2)cc1 [drawing 256]", "Result": 28.13}
{"Compound": "O=C(NCC1Cc2cc(-c3cncnc3)cc(Cl)c2O1)c1cccc(Cn2cccn2)c1 (stereo not drawn)", "Result": 30.25}

###

# Test system: HeLa cervical cancer cell line
# Test summary: In-vitro cell survival assay (Alamar blue), HeLa
# Type: cell-based
# Condition notes: Homo sapiens, 24 h, one day after compound addition
pEC50: −log10 of the molar value.

{"Compound": "O=C(NCC1CCNCC1)c1ccc(Nc2ncc(Cl)c(Nc3ccc4ncsc4c3)n2)cc1 [drawing 468]", "Target": "HeLa cervical cancer cell line", "Qualifier symbol": "<", "pEC50": 4.00}
{"Compound": "NC(=O)c1c(NC(=O)Nc2ccccc2)sc2c1CCCC2 [drawing 401]", "Target": "HeLa cervical cancer cell line", "Qualifier symbol": "=", "pEC50": 4.80}
{"Compound": "Nc1nc(N)n(-c2ccccc2)/c(=N/c2ccccc2)n1 [drawing 395]", "Target": "HeLa cervical cancer cell line", "Qualifier symbol": "<", "pEC50": 4.00}
{"Compound": "Clc1ccc(CNc2cc(-c3ccccc3)ncn2)cc1 [drawing 383]", "Target": "HeLa cervical cancer cell line", "Qualifier symbol": "<", "pEC50": 4.00}
{"Compound": "Cc1ccc(Cn2c(NCc3nc4ccccc4n3C)nc3ccccc32)cc1 [drawing 355]", "Target": "HeLa cervical cancer cell line", "Qualifier symbol": "<", "pEC50": 4.00}
{"Compound": "NC(Cc1ccccc1)C(=O)n1ccc2cccnc21 (stereo not drawn) [drawing 479]", "Target": "HeLa cervical cancer cell line", "Qualifier symbol": "=", "pEC50": 4.35}
{"Compound": "Cc1ccc(NC(=O)CCn2ccc3ccccc32)cc1 [drawing 472]", "Target": "HeLa cervical cancer cell line", "Qualifier symbol": "<", "pEC50": 4.00}
{"Compound": "Cn1c(=O)c2c(nc3n(CCO)c(-c4ccccc4)cn23)n(C)c1=O [drawing 402]", "Target": "HeLa cervical cancer cell line", "Qualifier symbol": "<", "pEC50": 4.00}
{"Compound": "c1cc(Nc2nccc(Nc3ccc4ncsc4c3)n2)cc(C2CCNCC2)c1 [drawing 440]", "Target": "HeLa cervical cancer cell line", "Qualifier symbol": "=", "pEC50": 4.82}
{"Compound": "O=C(CC1=Nc2cccc3cccc(c23)NC1=O)NCc1cccc(I)c1 [drawing 483]", "Target": "HeLa cervical cancer cell line", "Qualifier symbol": "=", "pEC50": 5.00}
{"Compound": "CCN(CCO)c1nc(Nc2ccc(F)cc2)c2cnn(-c3ccccc3)c2n1 [drawing 386]", "Target": "HeLa cervical cancer cell line", "Qualifier symbol": "=", "pEC50": 4.27}
{"Compound": "C[C@H](O)CN(C[C@H](C)O)C(=O)c1cccc(Nc2nccc(Nc3ccc4ncsc4c3)n2)c1 [drawing 420]", "Target": "HeLa cervical cancer cell line", "Qualifier symbol": "=", "pEC50": 4.85}
{"Compound": "COc1cccc(Nc2cc(Nc3cccc(C(=O)N4CCN(C(C)=O)CC4)c3)nc(N)n2)c1 [drawing 377]", "Target": "HeLa cervical cancer cell line", "Qualifier symbol": "<", "pEC50": 4.00}
{"Compound": "CC(C)c1nc(Nc2ccc(C(=O)NCc3ccccc3)cc2)nc(Nc2ccc3ncsc3c2)n1 [drawing 459]", "Target": "HeLa cervical cancer cell line", "Qualifier symbol": "=", "pEC50": 4.46}
{"Compound": "C1=C(c2cccc(Nc3nccc(Nc4ccc5ncsc5c4)n3)c2)CCNC1 [drawing 441]", "Target": "HeLa cervical cancer cell line", "Qualifier symbol": "=", "pEC50": 4.89}
{"Compound": "COc1ccc(C(F)(F)F)cc1NC(=O)CCn1ccc2ccccc21 [drawing 476]", "Target": "HeLa cervical cancer cell line", "Qualifier symbol": "<", "pEC50": 4.00}
{"Compound": "O=C(O)c1cccc(Nc2ncc(Cl)c(Nc3ccc4ncsc4c3)n2)c1 [drawing 462]", "Target": "HeLa cervical cancer cell line", "Qualifier symbol": "=", "pEC50": 4.82}
{"Compound": "O=C1NN=C(c2ccccc2)/C1=C1\\OC(c2ccccc2)=CS1 [drawing 392]", "Target": "HeLa cervical cancer cell line", "Qualifier symbol": "=", "pEC50": 4.64}
{"Compound": "CC1=NNC(=O)/C1=C\\c1cn(-c2ccccc2)nc1-c1ccccc1 [drawing 403]", "Target": "HeLa cervical cancer cell line", "Qualifier symbol": "=", "pEC50": 4.70}
{"Compound": "CC(C)c1nc(Nc2ccc3ncsc3c2)nc(N2CCOCC2)n1 [drawing 452]", "Target": "HeLa cervical cancer cell line", "Qualifier symbol": "=", "pEC50": 4.00}
{"Compound": "Clc1ccc2nc(NCc3ccccn3)nc(-c3ccccc3)c2c1 [drawing 357]", "Target": "HeLa cervical cancer cell line", "Qualifier symbol": "<", "pEC50": 4.00}

###

# Target: ROS (Homo sapiens, UniProt P08922)
# Sequence (P08922 28-2347): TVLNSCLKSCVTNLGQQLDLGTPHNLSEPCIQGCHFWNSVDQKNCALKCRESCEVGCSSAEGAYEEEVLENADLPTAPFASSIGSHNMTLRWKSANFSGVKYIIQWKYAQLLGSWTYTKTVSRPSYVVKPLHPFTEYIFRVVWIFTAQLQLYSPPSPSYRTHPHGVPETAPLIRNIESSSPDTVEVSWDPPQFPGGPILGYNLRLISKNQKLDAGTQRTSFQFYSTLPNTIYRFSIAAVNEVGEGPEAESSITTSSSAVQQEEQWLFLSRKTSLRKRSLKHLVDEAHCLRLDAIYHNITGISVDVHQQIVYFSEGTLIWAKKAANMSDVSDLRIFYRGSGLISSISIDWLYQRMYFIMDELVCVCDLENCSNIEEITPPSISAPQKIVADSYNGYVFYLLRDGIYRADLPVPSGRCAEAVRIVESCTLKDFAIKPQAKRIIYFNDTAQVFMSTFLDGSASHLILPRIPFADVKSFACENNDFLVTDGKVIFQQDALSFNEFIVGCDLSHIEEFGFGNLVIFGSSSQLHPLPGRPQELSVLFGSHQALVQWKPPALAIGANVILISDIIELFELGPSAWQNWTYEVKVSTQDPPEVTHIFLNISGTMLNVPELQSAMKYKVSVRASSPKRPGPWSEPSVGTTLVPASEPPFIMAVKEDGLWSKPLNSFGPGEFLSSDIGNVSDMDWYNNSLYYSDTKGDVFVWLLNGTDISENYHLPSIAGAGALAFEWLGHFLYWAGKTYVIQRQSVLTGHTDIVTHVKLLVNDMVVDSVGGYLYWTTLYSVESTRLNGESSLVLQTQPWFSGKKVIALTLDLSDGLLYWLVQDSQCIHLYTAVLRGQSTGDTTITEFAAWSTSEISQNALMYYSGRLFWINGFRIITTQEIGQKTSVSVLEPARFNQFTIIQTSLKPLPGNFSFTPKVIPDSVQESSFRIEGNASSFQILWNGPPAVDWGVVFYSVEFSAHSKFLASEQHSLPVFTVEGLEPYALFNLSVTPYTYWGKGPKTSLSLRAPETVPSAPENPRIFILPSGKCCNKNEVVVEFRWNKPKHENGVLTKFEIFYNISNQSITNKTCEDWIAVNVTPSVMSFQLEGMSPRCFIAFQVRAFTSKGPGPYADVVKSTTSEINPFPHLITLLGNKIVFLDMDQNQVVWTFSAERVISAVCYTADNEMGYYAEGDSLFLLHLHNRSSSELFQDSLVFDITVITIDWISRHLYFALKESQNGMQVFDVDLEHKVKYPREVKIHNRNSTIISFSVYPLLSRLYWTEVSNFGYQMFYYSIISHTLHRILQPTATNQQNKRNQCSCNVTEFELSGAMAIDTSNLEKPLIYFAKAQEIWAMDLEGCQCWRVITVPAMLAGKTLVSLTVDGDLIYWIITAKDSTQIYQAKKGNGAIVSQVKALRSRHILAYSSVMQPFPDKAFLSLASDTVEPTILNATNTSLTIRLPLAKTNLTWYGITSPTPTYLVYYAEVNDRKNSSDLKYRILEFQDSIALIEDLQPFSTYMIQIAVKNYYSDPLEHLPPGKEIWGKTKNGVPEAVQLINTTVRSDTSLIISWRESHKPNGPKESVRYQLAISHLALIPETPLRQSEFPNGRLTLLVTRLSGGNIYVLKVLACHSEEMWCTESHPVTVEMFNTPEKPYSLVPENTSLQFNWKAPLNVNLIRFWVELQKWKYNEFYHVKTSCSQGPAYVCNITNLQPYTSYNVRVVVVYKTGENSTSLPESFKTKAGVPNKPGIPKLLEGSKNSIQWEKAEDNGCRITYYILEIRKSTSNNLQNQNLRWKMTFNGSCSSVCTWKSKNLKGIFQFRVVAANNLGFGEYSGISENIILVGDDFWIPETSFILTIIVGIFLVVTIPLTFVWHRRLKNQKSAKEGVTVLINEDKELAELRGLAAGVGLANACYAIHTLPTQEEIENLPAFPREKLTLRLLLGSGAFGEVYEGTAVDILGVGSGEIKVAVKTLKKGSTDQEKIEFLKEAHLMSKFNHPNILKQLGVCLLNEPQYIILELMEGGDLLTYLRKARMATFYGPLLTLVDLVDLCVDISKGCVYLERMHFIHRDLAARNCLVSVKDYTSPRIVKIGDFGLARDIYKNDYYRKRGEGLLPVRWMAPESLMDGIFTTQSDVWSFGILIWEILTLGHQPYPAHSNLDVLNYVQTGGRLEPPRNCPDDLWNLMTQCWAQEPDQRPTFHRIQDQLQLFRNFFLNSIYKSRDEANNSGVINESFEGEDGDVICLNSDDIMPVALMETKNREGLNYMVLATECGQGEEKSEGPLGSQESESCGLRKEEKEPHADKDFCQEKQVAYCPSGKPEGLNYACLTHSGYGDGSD
# Test summary: In vitro ROS enzymatic reaction assay (HTRF, Cisbio)
# Format: biochemical
# Design: ROS or EGFR enzyme, 0.008 ng/ul
IC50 values, listed per item
Metric: IC50 (µM)

{"Molecule": "O=C(NCC1Cc2cc(-c3cncnc3)cc(Cl)c2O1)c1cccc(Cn2cccn2)c1 (stereo not shown)", "Qualifier symbol": ">", "Result": 100}
{"Molecule": "CC(C)(C)OC(=O)NC1CCN(C(=O)c2ccc(Nc3ncc(Cl)c(Nc4ccc5ncsc5c4)n3)cc2)CC1 [drawing 309]", "Qualifier symbol": ">", "Result": 5}
{"Molecule": "Nc1nc(N)n(-c2ccccc2)/c(=N/c2ccccc2)n1 [drawing 258]", "Qualifier symbol": ">", "Result": 100}
{"Molecule": "Cc1cc(C)n(-c2cccc(C(=O)NCC3Cc4cc(Cl)cc(-c5cnccn5)c4O3)c2)n1 (stereo not shown)", "Qualifier symbol": ">", "Result": 100}
{"Molecule": "O=C(NNc1cc(C(F)(F)F)ccc1Cl)c1cccnc1Oc1ccccc1 [drawing 253]", "Qualifier symbol": ">", "Result": 100}
{"Molecule": "CC(C)c1nc(Nc2ccc(C(=O)NCc3ccccc3)cc2)nc(Nc2cccc(Cc3nc4ccccc4s3)c2)n1 [drawing 316]", "Qualifier symbol": ">", "Result": 5}
{"Molecule": "COc1ccccc1[C@@H]1C(C#N)=C(N)Oc2n[nH]c(C(F)(F)F)c21", "Qualifier symbol": "=", "Result": 1.7}
{"Molecule": "O=C(NCc1ccco1)c1cccc(Nc2nccc(Nc3ccc4ncsc4c3)n2)c1 [drawing 239]", "Qualifier symbol": "=", "Result": 0.16}
{"Molecule": "Nc1ccc(Nc2nccc(Nc3cc(C4CC4)[nH]n3)n2)cc1 [drawing 299]", "Qualifier symbol": "=", "Result": 0.045}
{"Molecule": "CN1CCN(C(=O)c2cccc(Nc3nccc(Nc4ccc5ncsc5c4)n3)c2)CC1 [drawing 278]", "Qualifier symbol": "=", "Result": 0.14}
{"Molecule": "O=C(c1ccc(Nc2ncc(Br)c(Nc3ccc4ncsc4c3)n2)cc1)N1CCCCC1", "Qualifier symbol": "=", "Result": 0.62}
{"Molecule": "CC(C)CN(CC(C)C)C(=O)c1cccc(Nc2nccc(Nc3ccc4ncsc4c3)n2)c1 [drawing 287]", "Qualifier symbol": "=", "Result": 1.3}
{"Molecule": "c1cc(Nc2nccc(Nc3ccc4ncsc4c3)n2)cc(C2CCNCC2)c1 [drawing 303]", "Qualifier symbol": "=", "Result": 0.042}

###

# System: LN18 glioblastoma cell line
# Test summary: In-vitro cell survival assay (Alamar blue), LN18
# Type: cell-based
# Condition notes: Homo sapiens, LN-18, 24 h; LN18, one day after compound addition
pEC50: −log10 of the molar value.
Metric: pEC50

{"Compound": "CC(C)c1nc(Nc2ccc(C(=O)NCC3CCCCC3)cc2)nc(Nc2cccc(Cc3nc4ccccc4s3)c2)n1 [drawing 454]", "Result": "< 4.00"}
{"Compound": "O=C(NCCN1CCOCC1)c1cccc(Nc2nccc(Nc3ccc4ncsc4c3)n2)c1 [drawing 411]", "Result": "< 4.00"}
{"Compound": "Cn1c(=O)c2c(nc3n(CCO)c(-c4ccccc4)cn23)n(C)c1=O [drawing 402]", "Result": "< 4.00"}
{"Compound": "CC(C)(C)c1cc(C(=O)NNc2cccc(Cl)c2)n(Cc2ccccc2)n1 [drawing 389]", "Result": "< 4.00"}
{"Compound": "O=C1c2ccccc2C(=O)N1C[C@H](O)Cn1nc(-c2cccs2)c2ccccc2c1=O [drawing 405]", "Result": "< 4.00"}
{"Compound": "O=C(c1ccc(Nc2ncc(Cl)c(Nc3ccc4ncsc4c3)n2)cc1)N1CCCCC1 [drawing 443]", "Result": "< 4.00"}
{"Compound": "O=C(NCC1CCNCC1)c1ccc(Nc2ncc(Cl)c(Nc3ccc4ncsc4c3)n2)cc1 [drawing 468]", "Result": "< 4.00"}
{"Compound": "O=C(NC[C@H]1Cc2cc(-c3cncnc3)cc(Cl)c2O1)c1cccc(Cn2cccn2)c1", "Result": "< 4.00"}
{"Compound": "Cc1cccc(Nc2nccc(Nc3cccc(C(=O)Nc4ccc(F)cc4)c3)n2)c1 [drawing 382]", "Result": 5.22}
{"Compound": "CCN(CC)CCNC(=O)c1cccc(Nc2nccc(Nc3ccc4ncsc4c3)n2)c1 [drawing 373]", "Result": 4.82}
{"Compound": "CC(C)c1nc(Nc2ccc(C(=O)N3CCCCC3)cc2)nc(Nc2ccc3ncsc3c2)n1 [drawing 455]", "Result": 4.52}
{"Compound": "Cc1nc2cc(C(=O)N[C@H](c3ccccc3)c3cccnc3)ccc2[nH]1 [drawing 398]", "Result": "< 4.00"}
{"Compound": "O=C1NN=C(c2ccccc2)/C1=C/Nc1ccccc1 [drawing 368]", "Result": "< 4.00"}
